Hello, the source for this data is PubChem BioAssay (NCI), in case you need it.

assay: NCI Yeast Anticancer Drug Screen. Data for the rad50 strain (AID 155);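 further: 0% = growth of vehicle-only cultures of the same strain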; conditions: S. cerevisiae rad50 strain growth inhibition; at 5.0 µM (retest, dose inferred, filed as 0.5); stronger effect = higher value
Compounds without any hit were thinned out: in the full panel of roughly 79,000, 15% have a hit.
readoutKind: growth inhibition (%)
// units = %; emit number, no label

// query growth inhibition value for entry COC(=O)CC1c2cc(OC)c3cccc(OC)c3c2CCC1(C)C(=O)OC (stereo unspecified)
94

Any idea what its growth inhibition is? The compound is COP(=O)(OC)OCC1OC(n2cnc3c(N)ncnc32)C(O)C1O (stereo unspecified)
-2

For O=[N+]([O-])/C(Cl)=C(\Nc1ccccc1)C(Cl)=C(Cl)Cl , what is its reported growth inhibition?
55

# input compound: O=[N+]([O-])c1cccc(S(=O)(=O)Nc2cccc3ccccc23)c1 ; wanted: its growth inhibition
4

Which growth inhibition reading was recorded for the compound NC(=S)Nc1cccc(C(F)(F)F)c1 ?
-14

growth inhibition lookup needed for CN(/N=C/c1ccc([N+](=O)[O-])o1)C(N)=O , thanks.
10

Fill blank: measured growth inhibition of the compound O=C(/C=C/C(=N\Nc1ccccc1)c1ccccc1)c1ccccc1 is ____.
21

# input compound: C1=NC(N(Cc2ccccc2)Cc2ccccc2)N(Cc2ccccc2)N1 (stereo unspecified) ; wanted: its growth inhibition
26

Which measured growth inhibition value corresponds to CSc1nc(N)c2cnn(C3OC(CO)C(O)C3O)c2n1 (stereo unspecified) ?
-9

What value of growth inhibition has been reported for the following compound? Oc1cc(-[n+]2ccc3ccccc3c2)c(O)c2ccccc12
10

For the compound shown here, CC(=O)CCC(Br)(CCC(Br)(CCC(C)=O)[N+](=O)[O-])[N+](=O)[O-] (stereo unspecified) , give the reported growth inhibition.
0

###

So I've got a bunch of compounds here, and I need their growth inhibition values.
test: NCI Yeast Anticancer Drug Screen. Data for the mec2-1 strain (AID 157); settings: S. cerevisiae mec2-1 strain, at 50.0 µM (retest, dose inferred, filed as 5.0), stronger effect = higher value
About 79,000 compounds went through this panel and 15% of them were active in at least one assay; those are over-represented in the sample as a whole. Activity calls are given as the source filed them. Cut-off read from the data, not from the text of the source: active = growth inhibition above about 70%; inactive = the rest.

Tell me the measured growth inhibition of CCC(COS(=O)(=O)c1ccc(C)cc1)(COS(=O)(=O)c1ccc(C)cc1)COS(=O)(=O)c1ccc(C)cc1 , please.
0% (inactive)

I am curious: what growth inhibition value has been reported for CSc1ccc(/C=C2\CNC/C(=C\c3ccc(SC)cc3)C2=O)cc1 ?
19% (inactive)

Consider the compound COC(=O)/C(C#N)=C1\NC(=O)CC(c2ccccc2)C1C#N (stereo unspecified) and give its measured growth inhibition.
16% (inactive)

# lookup: growth inhibition of O=c1c2ccccc2c2ccccc2c(=O)n1-c1cc2c3ccccc3ccc2c2ccccc12
9% (inactive)

Requested read-out: growth inhibition. Entry: CCCCCCCCCc1ccc(OCC(O)CO)cc1 (stereo unspecified)
99% (active)

Record request: growth inhibition value, item c1c2c(cc(-n3nnc4c3CCCCCC4)c1-n1nnc3c1CCCCCC3)CCCCCC2
26% (inactive)

Sample COc1ccccc1C(C)c1ccc2ccccc2c1C(=O)O (stereo unspecified) — what was its growth inhibition?
93% (active)

Query: growth inhibition; subject: O=C1c2ccccc2SCC12OC2c1ccc(Cl)cc1 (stereo unspecified)
88% (active)

# query: growth inhibition of entry Cc1ccc(S(=O)(=O)Nc2ccccc2C=O)cc1
69% (inactive)

// lookup growth inhibition for COc1ccc2c(c1)C1(C)CCCC(C)(C(=O)O)C1CC2 (stereo unspecified)
99% (active)

Which growth inhibition reading was recorded for the compound O=C(OCc1ccc2c(c1)OCO2)c1ccc(Cl)cc1 ?
68% (inactive)
